- System Name: cloned human or rodent CNS receptors, channels, and transporters (PDSP panel) (Homo sapiens, UniProt P08912)
- Construct: expressed in transfected cells
- Sequence (P08912 whole entry): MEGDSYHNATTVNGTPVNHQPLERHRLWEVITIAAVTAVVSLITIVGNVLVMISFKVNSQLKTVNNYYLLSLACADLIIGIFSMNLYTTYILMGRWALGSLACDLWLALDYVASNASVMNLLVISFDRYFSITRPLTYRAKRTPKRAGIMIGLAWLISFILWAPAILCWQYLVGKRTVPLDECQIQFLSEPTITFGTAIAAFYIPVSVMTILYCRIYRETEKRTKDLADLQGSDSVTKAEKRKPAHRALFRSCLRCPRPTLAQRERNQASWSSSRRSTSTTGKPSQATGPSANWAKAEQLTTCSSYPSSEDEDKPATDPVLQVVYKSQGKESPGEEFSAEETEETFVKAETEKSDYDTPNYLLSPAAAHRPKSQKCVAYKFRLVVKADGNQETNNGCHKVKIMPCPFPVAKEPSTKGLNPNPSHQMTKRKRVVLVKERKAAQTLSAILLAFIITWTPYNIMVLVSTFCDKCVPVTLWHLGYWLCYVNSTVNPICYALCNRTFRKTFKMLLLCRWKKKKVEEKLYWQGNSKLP
- Experimental Details: PDSP GPCR panel primary binding assays at 10 μM
- Protocol Conditions: M5; primary assay, replicate 2
For each of the compounds below, state its Inhibition 2.
Report as a plain number; the unit % is understood.

Inquiry: Reported Inhibition 2 for CCC(=O)N1CCC(NC(=O)Nc2ccc(OC(F)(F)F)cc2)CC1 [UNC10302681A, TPPU] : what is it?
Reply text: -1.14

Inquiry: Reported Inhibition 2 for O=C(NC1CC1)C(=O)C(Cc1ccccc1)NC(=O)[C@H]1CCC(=O)N1Cc1ccccc1 (stereo partly shown) [UNC10302676A, ABT-957 (Alicapistat)] : what is it?
Reply text: -7.48

Inquiry: Reported Inhibition 2 for CC(=O)N1CCC(NC(=O)NC23CC4CC(CC(C4)C2)C3)CC1 [UNC10302683A, AR9281] : what is it?
Reply text: -4.77

Inquiry: Reported Inhibition 2 for CNc1nc(C)nc(N[C@H]2CCC[C@@H](C(=O)NCc3ccc(C#N)cc3C(F)(F)F)C2)n1 [UNC10302679A, GSK2256294A] : what is it?
Reply text: -10.6

====

- System Name: cloned human or rodent CNS receptors, channels, and transporters (PDSP panel) (Homo sapiens)
- Construct: expressed in transfected cells
- Experimental Details: PDSP GPCR panel primary binding assays at 10 μM
- Protocol Conditions: 5-HT1B; primary assay, replicate 2
For each of the molecules below, state its Inhibition 2.
Write the numeric value and follow it with the unit.

Inquiry: Reported Inhibition 2 for CCC(=O)N1CCC(NC(=O)Nc2ccc(OC(F)(F)F)cc2)CC1 [UNC10302681A, TPPU] : what is it?
Reply text: 0.59%

Inquiry: Reported Inhibition 2 for CNc1nc(C)nc(N[C@H]2CCC[C@@H](C(=O)NCc3ccc(C#N)cc3C(F)(F)F)C2)n1 [UNC10302679A, GSK2256294A] : what is it?
Reply text: -14.35%

Inquiry: Reported Inhibition 2 for CC(=O)N1CCC(NC(=O)NC23CC4CC(CC(C4)C2)C3)CC1 [UNC10302683A, AR9281] : what is it?
Reply text: -3.93%

Inquiry: Reported Inhibition 2 for O=C(NC1CC1)C(=O)C(Cc1ccccc1)NC(=O)[C@H]1CCC(=O)N1Cc1ccccc1 (stereo partly shown) [UNC10302676A, ABT-957 (Alicapistat)] : what is it?
Reply text: 10.49%

====

- System Name: cloned human or rodent CNS receptors, channels, and transporters (PDSP panel) (Homo sapiens)
- Construct: expressed in transfected cells
- Experimental Details: PDSP GPCR panel primary binding assays at 10 μM
- Protocol Conditions: Receptor 5-HT2C; primary assay, 10 μM
Measured Property: Inhibition 2

Inquiry: Reported Inhibition 2 for Cl.NC(=O)c1cnc(N[C@@H]2CCCC[C@@H]2N)nc1Nc1cccc(-n2nccn2)c1 [UNC10302682A, P505-15 (PRT06207 HCl)] : what is it?
Reply text: 64.79%

Inquiry: Reported Inhibition 2 for O=c1oc2ccccc2cc1-c1cn2cc(Cc3ccc(F)cc3)sc2n1 [UNC10302680A, iMDK] : what is it?
Reply text: -2.94%

Inquiry: Reported Inhibition 2 for c1cn2cc(-c3ccc4cn[nH]c4c3)nc(Nc3ccc(N4CCOCC4)cc3)c2n1 [UNC10302678A, Entospletinib (GS-9973)] : what is it?
Reply text: 5.4%

Inquiry: Reported Inhibition 2 for CCCCNc1ncc2c(-c3ccc(CN4CCN(C)CC4)cc3)cn([C@H]3CC[C@H](O)CC3)c2n1 [UNC2025C, UNC2025] : what is it?
Reply text: 46.13%

====

- System: cloned human or rodent CNS receptors, channels, and transporters (PDSP panel)
- Experimental Details: PDSP GPCR panel primary binding assays at 10 μM
- Protocol Conditions: Receptor Alpha1A; primary assay, 10 μM
Measured Property: Inhibition 3 (%)
Report as a plain number; the unit % is understood.

Inquiry: Missing value: Inhibition 3, cloned human or rodent CNS receptors, channels, and transporters (PDSP panel), entry CCCCNc1ncc2c(-c3ccc(CN4CCN(C)CC4)cc3)cn([C@H]3CC[C@H](O)CC3)c2n1 [UNC2025C, UNC2025] . Fill in?
Reply text: 47.98

Inquiry: Missing value: Inhibition 3, cloned human or rodent CNS receptors, channels, and transporters (PDSP panel), entry c1cn2cc(-c3ccc4cn[nH]c4c3)nc(Nc3ccc(N4CCOCC4)cc3)c2n1 [UNC10302678A, Entospletinib (GS-9973)] . Fill in?
Reply text: -29.27

Inquiry: Missing value: Inhibition 3, cloned human or rodent CNS receptors, channels, and transporters (PDSP panel), entry O=c1oc2ccccc2cc1-c1cn2cc(Cc3ccc(F)cc3)sc2n1 [UNC10302680A, iMDK] . Fill in?
Reply text: -0.84

Inquiry: Missing value: Inhibition 3, cloned human or rodent CNS receptors, channels, and transporters (PDSP panel), entry Cl.NC(=O)c1cnc(N[C@@H]2CCCC[C@@H]2N)nc1Nc1cccc(-n2nccn2)c1 [UNC10302682A, P505-15 (PRT06207 HCl)] . Fill in?
Reply text: 28.52

====

- System Name: cloned human or rodent CNS receptors, channels, and transporters (PDSP panel) (Homo sapiens, UniProt P47898)
- Construct: expressed in transfected cells
- Sequence (P47898 whole entry): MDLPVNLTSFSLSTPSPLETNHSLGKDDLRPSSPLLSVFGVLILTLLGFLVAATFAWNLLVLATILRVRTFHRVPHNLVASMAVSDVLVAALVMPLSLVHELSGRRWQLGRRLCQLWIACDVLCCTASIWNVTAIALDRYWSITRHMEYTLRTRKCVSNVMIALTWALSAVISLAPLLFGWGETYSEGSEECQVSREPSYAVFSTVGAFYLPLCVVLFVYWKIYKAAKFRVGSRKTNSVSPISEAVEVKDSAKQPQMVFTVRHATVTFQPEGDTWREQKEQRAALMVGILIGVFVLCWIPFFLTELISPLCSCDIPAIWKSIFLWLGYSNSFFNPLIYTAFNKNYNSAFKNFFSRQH
- Experimental Details: PDSP GPCR panel primary binding assays at 10 μM
- Protocol Conditions: Receptor 5-HT5A; primary assay, 10 μM
Measured Property: Inhibition 2

Inquiry: Reported Inhibition 2 for c1cn2cc(-c3ccc4cn[nH]c4c3)nc(Nc3ccc(N4CCOCC4)cc3)c2n1 [UNC10302678A, Entospletinib (GS-9973)] : what is it?
Reply text: -43.49%

Inquiry: Reported Inhibition 2 for O=c1oc2ccccc2cc1-c1cn2cc(Cc3ccc(F)cc3)sc2n1 [UNC10302680A, iMDK] : what is it?
Reply text: -18.16%

Inquiry: Reported Inhibition 2 for CCCCNc1ncc2c(-c3ccc(CN4CCN(C)CC4)cc3)cn([C@H]3CC[C@H](O)CC3)c2n1 [UNC2025C, UNC2025] : what is it?
Reply text: 14.3%

Inquiry: Reported Inhibition 2 for Cl.NC(=O)c1cnc(N[C@@H]2CCCC[C@@H]2N)nc1Nc1cccc(-n2nccn2)c1 [UNC10302682A, P505-15 (PRT06207 HCl)] : what is it?
Reply text: -8.26%

====

- Experimental Details: Snapshot IV PK in CD1 mice
- Assay type: in vivo
- Protocol Conditions: CD1, in vivo, mouse, 3.0 mg/kg
Measured Property: Cmax (ng/mL)
Report as a plain number; the unit ng/mL is understood.

Inquiry: Reported Cmax for c1cn2cc(-c3ccc4cn[nH]c4c3)nc(Nc3ccc(N4CCOCC4)cc3)c2n1 [UNC10302678A, Entospletinib (GS-9973)] : what is it?
Reply text: 926

====

For each of the compounds below, state its Mean %.
- System Name: cloned human or rodent CNS receptors, channels, and transporters (PDSP panel) (Homo sapiens, UniProt P28221)
- Construct: expressed in transfected cells
- Sequence (P28221 whole entry): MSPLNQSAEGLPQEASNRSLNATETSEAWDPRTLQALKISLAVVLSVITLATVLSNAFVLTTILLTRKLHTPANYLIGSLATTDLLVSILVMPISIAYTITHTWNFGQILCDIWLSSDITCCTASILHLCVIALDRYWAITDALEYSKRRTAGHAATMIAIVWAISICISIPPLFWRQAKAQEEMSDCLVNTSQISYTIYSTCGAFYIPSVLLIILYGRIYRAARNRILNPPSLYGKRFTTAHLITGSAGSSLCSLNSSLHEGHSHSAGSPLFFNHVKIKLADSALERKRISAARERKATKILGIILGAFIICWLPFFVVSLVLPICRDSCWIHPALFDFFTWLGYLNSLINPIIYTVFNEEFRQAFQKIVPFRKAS
- Experimental Details: PDSP GPCR panel primary binding assays at 10 μM
- Protocol Conditions: 5-HT1D; primary assay, mean inhibition
Report as a plain number; the unit % is understood.

Inquiry: Reported Mean % for CNc1nc(C)nc(N[C@H]2CCC[C@@H](C(=O)NCc3ccc(C#N)cc3C(F)(F)F)C2)n1 [UNC10302679A, GSK2256294A] : what is it?
Reply text: 6.14

Inquiry: Reported Mean % for CCC(=O)N1CCC(NC(=O)Nc2ccc(OC(F)(F)F)cc2)CC1 [UNC10302681A, TPPU] : what is it?
Reply text: 0.73

Inquiry: Reported Mean % for CC(=O)N1CCC(NC(=O)NC23CC4CC(CC(C4)C2)C3)CC1 [UNC10302683A, AR9281] : what is it?
Reply text: 6.45

Inquiry: Reported Mean % for O=C(NC1CC1)C(=O)C(Cc1ccccc1)NC(=O)[C@H]1CCC(=O)N1Cc1ccccc1 (stereo partly shown) [UNC10302676A, ABT-957 (Alicapistat)] : what is it?
Reply text: 14.89

====

- System Name: cloned human or rodent CNS receptors, channels, and transporters (PDSP panel) (Homo sapiens)
- Construct: expressed in transfected cells
- Experimental Details: PDSP GPCR panel primary binding assays at 10 μM
- Protocol Conditions: Receptor D5; primary assay, 10 μM
Measured Property: Inhibition 4 (%)
Report as a plain number; the unit % is understood.

Inquiry: Reported Inhibition 4 for Cl.NC(=O)c1cnc(N[C@@H]2CCCC[C@@H]2N)nc1Nc1cccc(-n2nccn2)c1 [UNC10302682A, P505-15 (PRT06207 HCl)] : what is it?
Reply text: 14.53

Inquiry: Reported Inhibition 4 for O=c1oc2ccccc2cc1-c1cn2cc(Cc3ccc(F)cc3)sc2n1 [UNC10302680A, iMDK] : what is it?
Reply text: 7.82

Inquiry: Reported Inhibition 4 for CCCCNc1ncc2c(-c3ccc(CN4CCN(C)CC4)cc3)cn([C@H]3CC[C@H](O)CC3)c2n1 [UNC2025C, UNC2025] : what is it?
Reply text: 14.39

Inquiry: Reported Inhibition 4 for c1cn2cc(-c3ccc4cn[nH]c4c3)nc(Nc3ccc(N4CCOCC4)cc3)c2n1 [UNC10302678A, Entospletinib (GS-9973)] : what is it?
Reply text: 11.03

The reported numbers originate from paper PMC9005681.
